TARGET_UNDER_TEST: Tyrosine-protein kinase SYK (Rattus norvegicus) (UniProt Q64725)
Sequence (Q64725 whole entry, looked up): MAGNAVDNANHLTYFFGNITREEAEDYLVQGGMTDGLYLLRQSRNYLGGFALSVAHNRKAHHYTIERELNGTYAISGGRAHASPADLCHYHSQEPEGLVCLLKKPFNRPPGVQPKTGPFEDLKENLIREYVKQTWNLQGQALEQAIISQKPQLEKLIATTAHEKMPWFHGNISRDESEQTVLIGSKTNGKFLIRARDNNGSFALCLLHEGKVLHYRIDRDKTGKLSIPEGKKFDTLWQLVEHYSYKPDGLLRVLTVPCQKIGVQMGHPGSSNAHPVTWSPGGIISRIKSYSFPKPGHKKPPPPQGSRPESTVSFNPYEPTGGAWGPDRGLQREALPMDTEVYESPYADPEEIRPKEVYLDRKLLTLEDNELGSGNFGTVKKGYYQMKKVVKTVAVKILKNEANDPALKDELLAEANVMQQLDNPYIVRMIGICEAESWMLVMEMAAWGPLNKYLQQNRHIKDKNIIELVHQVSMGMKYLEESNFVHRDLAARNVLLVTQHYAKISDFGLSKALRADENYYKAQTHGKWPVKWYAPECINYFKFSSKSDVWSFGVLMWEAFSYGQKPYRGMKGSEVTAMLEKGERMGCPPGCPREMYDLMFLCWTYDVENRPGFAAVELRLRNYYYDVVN
METHOD_DESCRIPTION: Inhibition of Syk phosphorylation in DNP-BSA-stimulated rat RBL2H3 cells by Western blotting
Format: cell-based
MEASUREMENT_SETUP: RBL-2H3
Calls of active or inactive are those of the source. No cut-off for these calls is given here.
Select the correct class. Options are active, inactive and nothing else.

Could you please tell me the result logged for "O=C(O[C@@H]1Cc2c(O)cc(O)cc2O[C@@H]1c1cc(O)c(O)c(O)c1)c1cc(O)c(O)c(O)c1" in this assay? inactive

Now the compound "O=C(/C=C/c1ccc(O)cc1)OC[C@H]1O[C@@H](Oc2c(-c3ccc(O)cc3)oc3cc(O)cc(O)c3c2=O)[C@H](O)[C@@H](O)[C@@H]1O" inactive

Field entry: "O=C(/C=C/c1ccccc1)Oc1cc(O)c2c(=O)cc(-c3ccccc3)oc2c1" inactive

Repeat with "O=c1cc(-c2ccccc2)oc2cc(O)cc(O)c12" inactive

Quick one: "O=c1c(O)c(-c2ccc(O)cc2)oc2cc(O)cc(O)c12" active

---

TARGET_UNDER_TEST: 1-phosphatidylinositol 4,5-bisphosphate phosphodiesterase gamma-2 (Rattus norvegicus)
METHOD_DESCRIPTION: Inhibition of PLCgamma2 phosphorylation in DNP-BSA-stimulated rat RBL2H3 cells by Western blotting
Format: cell-based
MEASUREMENT_SETUP: RBL-2H3
Active and inactive are the calls of the source. The rule behind the calls is not given here.
Reply using exactly one outcome from active, inactive

Just curious, what result did "O=c1cc(-c2ccccc2)oc2cc(O)cc(O)c12" get here? inactive

Ok, now "O=C(/C=C/c1ccc(O)cc1)OC[C@H]1O[C@@H](Oc2c(-c3ccc(O)cc3)oc3cc(O)cc(O)c3c2=O)[C@H](O)[C@@H](O)[C@@H]1O" inactive

And for "O=C(/C=C/c1ccccc1)Oc1cc(O)c2c(=O)cc(-c3ccccc3)oc2c1" ? inactive

"O=C(O[C@@H]1Cc2c(O)cc(O)cc2O[C@@H]1c1cc(O)c(O)c(O)c1)c1cc(O)c(O)c(O)c1" , same question. inactive

Here is the next compound: "O=c1c(O)c(-c2ccc(O)cc2)oc2cc(O)cc(O)c12" active
